- targetOrSystem: secreted GV sPLA2 (Homo sapiens)
- Sequence (P39877 21-138): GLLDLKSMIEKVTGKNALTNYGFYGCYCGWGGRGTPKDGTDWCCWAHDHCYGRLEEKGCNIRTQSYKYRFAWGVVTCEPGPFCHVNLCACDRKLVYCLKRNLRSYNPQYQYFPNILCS
- protocol: radioactivity-based mixed micelle assay, GV sPLA2
- Type: biochemical
- testContext: average of triplicates; read-out: sPLA2 % inhibition at 0.091 mole fraction, average
Quick list: inhibition at 0.091 mole fraction per entry.
Quick reminder: number only, in %, skip the unit.

Some solved cases for reference:
{"compound": "COC(=O)c1csc(C(=O)COc2ccc(Oc3ccc(F)cc3)cc2)n1", "targetOrSystem": "secreted GV sPLA2 (Homo sapiens)", "measurementUnit": "%", "recordedMeasurement": 30.8}
{"compound": "CCCCCCCCc1ccc(OCC(=O)c2nc(C(=O)OCC)cs2)cc1", "targetOrSystem": "secreted GV sPLA2 (Homo sapiens)", "measurementUnit": "%", "recordedMeasurement": 46.1}

Switching to the query record.
Bench note: what inhibition at 0.091 mole fraction did CCCCCCCOc1ccc(OC(C)C(=O)c2nc(C(=O)OC)cs2)cc1 (stereo not drawn) show?
53.3

###

Quick list: inhibition at 0.091 mole fraction per entry.
- targetOrSystem: human calcium-independent GVIA iPLA2 (Homo sapiens, UniProt O60733)
- Sequence (O60733 whole entry): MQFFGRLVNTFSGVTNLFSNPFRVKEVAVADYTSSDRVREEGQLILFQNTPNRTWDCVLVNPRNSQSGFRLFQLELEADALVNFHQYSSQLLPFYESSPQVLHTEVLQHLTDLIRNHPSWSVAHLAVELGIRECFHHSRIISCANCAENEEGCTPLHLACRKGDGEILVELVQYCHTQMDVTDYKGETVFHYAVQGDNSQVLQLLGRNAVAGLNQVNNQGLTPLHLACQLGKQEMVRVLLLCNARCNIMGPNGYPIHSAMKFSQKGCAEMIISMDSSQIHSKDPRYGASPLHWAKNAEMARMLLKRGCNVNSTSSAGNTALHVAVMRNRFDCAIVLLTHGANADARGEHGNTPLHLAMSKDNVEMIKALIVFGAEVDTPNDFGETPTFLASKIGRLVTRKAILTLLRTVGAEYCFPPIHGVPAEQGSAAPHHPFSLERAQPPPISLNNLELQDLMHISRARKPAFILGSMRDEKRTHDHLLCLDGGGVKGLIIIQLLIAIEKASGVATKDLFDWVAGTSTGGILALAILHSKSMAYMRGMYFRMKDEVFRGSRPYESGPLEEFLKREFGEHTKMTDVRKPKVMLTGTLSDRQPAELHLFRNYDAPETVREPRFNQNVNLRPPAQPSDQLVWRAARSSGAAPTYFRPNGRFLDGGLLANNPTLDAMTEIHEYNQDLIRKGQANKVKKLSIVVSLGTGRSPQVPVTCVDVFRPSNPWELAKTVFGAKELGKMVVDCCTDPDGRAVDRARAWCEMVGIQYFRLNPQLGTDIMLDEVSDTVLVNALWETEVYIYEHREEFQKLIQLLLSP
- protocol: radioactivity-based mixed micelle assay, GVIA iPLA2
- Type: biochemical
- testContext: 0.091 mole fraction; read-out: GVIA iPLA2 % Inhib
Quick reminder: number only, in %, skip the unit.

Some solved cases for reference:
{"molecule": "CCCCCCCOc1ccc(OC(C)C(=O)c2nc(C(=O)OC)cs2)cc1 (stereo not shown)", "targetOrSystem": "human calcium-independent GVIA iPLA2 (Homo sapiens, UniProt O60733)", "quantityMeasured": "inhibition at 0.091 mole fraction", "recordedMeasurement": 67}
{"molecule": "COC(=O)c1csc(C(=O)COc2ccc(Oc3ccccc3)cc2)n1", "targetOrSystem": "human calcium-independent GVIA iPLA2 (Homo sapiens, UniProt O60733)", "quantityMeasured": "inhibition at 0.091 mole fraction", "recordedMeasurement": 34}
{"molecule": "COC(=O)c1csc(C(=O)C(C)Oc2ccc(Oc3ccccc3)cc2)n1 (stereo not shown)", "targetOrSystem": "human calcium-independent GVIA iPLA2 (Homo sapiens, UniProt O60733)", "quantityMeasured": "inhibition at 0.091 mole fraction", "recordedMeasurement": 54}

Bench note: what inhibition at 0.091 mole fraction did CCCCCCSc1ccc(OC(C)C(=O)c2nc(C(=O)OC)cs2)cc1 (stereo not shown) show?
67

Bench note: what inhibition at 0.091 mole fraction did CCCCCCCOc1ccc(OCC(=O)c2nc(C(=O)OC)cs2)cc1 show?
0

Bench note: what inhibition at 0.091 mole fraction did CCCCCCOc1ccc(SCC(=O)c2nc(C(=O)OC)cs2)cc1 show?
0

###

- System: panel of 66 cancer cell lines
- protocol: cancer cell line screen, proliferation assay (ATPlite, 72 h)
- Assay type: cell-based, human
- testContext: Homo sapiens, COLO-829, COLO 829; read-out: IC50
Quick list: IC50 per entry.
Quick reminder: number only, in µM, skip the unit.

Bench note: what IC50 did CCCCCCCCc1ccc(OCC(=O)c2nc(C(=O)OC)cs2)cc1 show?
16.8

Bench note: what IC50 did CCCCCCCOc1ccc(OCC(=O)c2nc(C(=O)OC)cs2)cc1 show?
17.3
